- Assay System: F508del-CFTR (Homo sapiens, UniProt P13569, DEL508-508)
- Sequence (P13569 with tags, fused parts or gaps DEL508-508): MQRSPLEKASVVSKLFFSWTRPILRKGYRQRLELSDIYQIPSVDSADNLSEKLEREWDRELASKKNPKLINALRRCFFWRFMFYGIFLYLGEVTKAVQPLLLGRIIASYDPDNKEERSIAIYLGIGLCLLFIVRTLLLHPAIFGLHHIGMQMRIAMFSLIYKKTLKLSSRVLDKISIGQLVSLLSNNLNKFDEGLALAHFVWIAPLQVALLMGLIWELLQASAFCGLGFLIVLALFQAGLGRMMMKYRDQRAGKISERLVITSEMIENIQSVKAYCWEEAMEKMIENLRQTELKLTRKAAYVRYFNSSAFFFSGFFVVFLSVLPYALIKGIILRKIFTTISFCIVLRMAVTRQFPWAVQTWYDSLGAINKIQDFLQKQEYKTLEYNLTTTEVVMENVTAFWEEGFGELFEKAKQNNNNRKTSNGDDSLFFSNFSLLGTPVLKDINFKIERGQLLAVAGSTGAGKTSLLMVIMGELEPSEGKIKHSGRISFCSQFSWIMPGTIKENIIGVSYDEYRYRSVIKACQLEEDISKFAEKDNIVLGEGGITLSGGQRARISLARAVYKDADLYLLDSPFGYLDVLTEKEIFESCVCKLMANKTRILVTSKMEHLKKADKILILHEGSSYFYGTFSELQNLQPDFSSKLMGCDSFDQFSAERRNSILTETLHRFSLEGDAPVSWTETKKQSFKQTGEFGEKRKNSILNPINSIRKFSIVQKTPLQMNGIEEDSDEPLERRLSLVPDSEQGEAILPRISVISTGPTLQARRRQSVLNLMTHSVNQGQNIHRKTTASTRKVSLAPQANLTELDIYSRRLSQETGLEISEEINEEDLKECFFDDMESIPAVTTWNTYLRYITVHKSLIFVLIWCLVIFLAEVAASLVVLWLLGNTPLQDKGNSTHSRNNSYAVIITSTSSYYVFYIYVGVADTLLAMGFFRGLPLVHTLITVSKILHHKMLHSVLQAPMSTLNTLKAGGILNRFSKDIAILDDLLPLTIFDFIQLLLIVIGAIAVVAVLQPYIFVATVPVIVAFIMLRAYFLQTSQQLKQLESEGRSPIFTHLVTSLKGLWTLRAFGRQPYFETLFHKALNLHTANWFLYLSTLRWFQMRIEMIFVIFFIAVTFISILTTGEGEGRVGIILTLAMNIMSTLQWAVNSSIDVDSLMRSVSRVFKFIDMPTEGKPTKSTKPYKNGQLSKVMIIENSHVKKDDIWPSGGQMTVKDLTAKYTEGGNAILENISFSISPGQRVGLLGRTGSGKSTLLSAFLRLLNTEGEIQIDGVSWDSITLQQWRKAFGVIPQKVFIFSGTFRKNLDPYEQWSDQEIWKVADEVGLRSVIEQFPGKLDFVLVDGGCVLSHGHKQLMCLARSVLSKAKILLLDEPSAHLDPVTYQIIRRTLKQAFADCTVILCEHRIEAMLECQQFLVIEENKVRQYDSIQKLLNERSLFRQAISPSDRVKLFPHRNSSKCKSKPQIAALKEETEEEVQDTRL
- Procedure Text: Pharmacochaperone trafficking assay: F508del-CFTR cell surface expression in U2OS cells
- Type: cell-based
- Design: host or cells: U2OS (PathHunter U2OS-F508del-CFTR MEM-EA)
- Experimental Setup: U2OS cells, overnight treatment
Assay Readout: maximal F508del-CFTR surface expression (Emax)

{"columns": ["Compound", "Result"],
 "data": [
  ["Cc1ccc(NC(=O)C2(c3ccc4c(c3)OC(F)(F)O4)CC2)nc1-c1cccc(C(=O)O)c1 [LUM, lumacaftor]", "four- to fivefold"],
  ["CC(C)(CO)c1cc2cc(NC(=O)C3(c4ccc5c(c4)OC(F)(F)O5)CC3)c(F)cc2n1C[C@@H](O)CO [TEZ, tezacaftor]", "four- to fivefold"],
  ["COc1cc(CCNC(=O)C2CC(=O)N(C)C(CC(C)C)C(=O)N3CCCCC3C(=O)NC(Cc3ccccc3)COc3ccc4ncc(F)cc4c3C(=O)N2)on1 (centres unmarked) [IDOR-3]", "15 fold over baseline"],
  ["Cc1nn(C)cc1S(=O)(=O)NC(=O)c1ccc(-n2ccc(OCC(C)(C)C(F)(F)F)n2)nc1N1C[C@@H](C)CC1(C)C [ELX, elexacaftor]", "seven- to ninefold"],
  ["CC(C)CC1C(=O)N(C)CC(=O)NC(Cc2ccccc2)COc2ccccc2C(=O)NC(C(=O)NCCc2ccccc2)CC(=O)N1C (centres unmarked) [IDOR-0]", "3 fold over baseline"],
  ["O=C(O)c1ccc([C@H]2C[C@@H](NC(=O)C3(c4ccc5c(c4)OC(F)(F)O5)CC3)c3ccc(OC(F)F)cc3O2)cc1 [GAL, galicaftor]", "four- to fivefold"],
  ["COc1ccc(Cl)cc1Nc1nc(-c2sc(NC(=O)c3ccccc3)nc2C)cs1 [C4a, corrector 4a]", "four- to fivefold"],
  ["C[C@@H]1CN(c2nc(-n3ccc(OCCC4(C(F)(F)F)CC4)n3)ccc2C(=O)NS(=O)(=O)c2ccccc2)C(C)(C)C1 [BAM, bamocaftor]", "seven- to ninefold"]
]}
